assay: Mouse pharmacokinetics, ip; type: in vivo, male C57BL/6 mice; conditions: male, C57BL/6, mouse, plasma, 50 mg/kg
Readout: Cmax (ng/mL)
Please give a number only; it is taken to be in ng/mL.

-- ask What does the data say about its Cmax? Entry: "C#Cc1ccc(NC(=O)c2cnn3c(C)cc(C)nc23)cc1"
-- reply 298

###

assay: Mouse pharmacokinetics, ip; type: in vivo, male C57BL/6 mice; settings: male, C57BL/6, mouse, brain, 50 mg/kg
Readout: Cmax
Quick note: number first, unit second.

-- ask What does the data say about its Cmax? Entry: "C#Cc1ccc(NC(=O)c2cnn3c(C)cc(C)nc23)cc1"
-- reply 802 ng/mL

###

assay: Mouse pharmacokinetics, ip; assay type: in vivo, male C57BL/6 mice; details: male, C57BL/6, mouse, liver, 50 mg/kg
Readout: Kp
Respond numerically, and do not add a unit to the figure.

-- ask What does the data say about its Kp? Entry: "C#Cc1ccc(NC(=O)c2cnn3c(C)cc(C)nc23)cc1"
-- reply 125
